biological target: Bromodomain-containing protein 4 (Homo sapiens); assay: Displacement of FITC-labeled (+)-JQ1 from bromodomain BRD4(1) (unknown origin) expressed in Escherichia coli BL21(DE3) after 4 hrs by fluorescence anisotropy assay
pIC50: −log10 of the molar value.
Measured attribute: pIC50

Sample records with pIC50:
Entry O=c1[nH]c(-c2cccc(Cl)c2)cs1 : reported pIC50 = ?
4.62

Ok, now CCCC(=O)Nc1cc(-c2csc(=O)[nH]2)ccc1NS(=O)(=O)c1cccs1
5.62

Next: O=c1[nH]c(-c2ccc(NS(=O)(=O)c3cccs3)c(O)c2)cs1
5.48

And the next one, O=C(CCc1ccccc1)Nc1cc(-c2csc(=O)[nH]2)ccc1NS(=O)(=O)c1cccs1 ?
5.59

Entry Nc1cc(NS(=O)(=O)c2cccs2)cc(-c2csc(=O)[nH]2)c1 please
5.59

[I] Nc1ccc(-c2csc(=O)[nH]2)cc1O
[II] Cc1noc(C)c1-c1ccccc1
Of the pair I and II , name the member with the lesser recorded pIC50. Respond with the label that goes with your answer.
I

[P] Nc1cc(N)cc(-c2csc(=O)[nH]2)c1
[Q] O=C(Nc1cc(-c2csc(=O)[nH]2)ccc1NS(=O)(=O)c1cccs1)C1CCCC1
P or Q : whose pIC50 is greater? Lab log: write the label of the selected item as the result.
Q
